test system: HOP-92; experiment: NCI tumour cell line growth inhibition, 48 h
The source made the active and inactive calls. Rule as the data show it: active = GI50 up to about 1.1 µM and inactive = higher.
In this section, each of the molecules is paired with its reported GI50.

Solved cases (3 shown):
CC(C)=CCN(N=O)c1ncnc2[nH]cnc12    > 100 µM (inactive)
Cc1nc2ccc([N+](=O)[O-])cc2c(=O)n1C(=S)Nc1cccc(Cl)c1    3.5 µM (inactive)
CCOc1ccc(NC(=O)/C(CC(=O)c2c[n+]([O-])c3ccccc3[n+]2[O-])=N\OCCCc2ccccc2)cc1    16.9 µM (inactive)

Task: # return recorded GI50 for entry `CC(=O)C1(c2ccccc2)CCN(Cn2sc3nc(C)cc(C)c3c2=O)CC1`
Output: 59.4 µM (inactive)

Task: # return recorded GI50 for entry COc1cccc2c1C(=O)c1c(O)c3c(c(O)c1C2=O)CC(O)(C(=O)CO)CC3OC1CC(N)C(I)C(C)O1 (stereo not given)
Output: 9.68 µM (inactive)

Task: # return recorded GI50 for entry `COc1ccc(C)cc1NC(=S)C#N`
Output: > 100 µM (inactive)
